Hey, just so you know, these numbers are from paper PMC8185074.

EXPERIMENTAL TARGET: HDAC2 (Homo sapiens, UniProt Q92769)
Construct: purchased Reaction Biology Corporation (assay run by the CRO)
Sequence (Q92769 whole entry): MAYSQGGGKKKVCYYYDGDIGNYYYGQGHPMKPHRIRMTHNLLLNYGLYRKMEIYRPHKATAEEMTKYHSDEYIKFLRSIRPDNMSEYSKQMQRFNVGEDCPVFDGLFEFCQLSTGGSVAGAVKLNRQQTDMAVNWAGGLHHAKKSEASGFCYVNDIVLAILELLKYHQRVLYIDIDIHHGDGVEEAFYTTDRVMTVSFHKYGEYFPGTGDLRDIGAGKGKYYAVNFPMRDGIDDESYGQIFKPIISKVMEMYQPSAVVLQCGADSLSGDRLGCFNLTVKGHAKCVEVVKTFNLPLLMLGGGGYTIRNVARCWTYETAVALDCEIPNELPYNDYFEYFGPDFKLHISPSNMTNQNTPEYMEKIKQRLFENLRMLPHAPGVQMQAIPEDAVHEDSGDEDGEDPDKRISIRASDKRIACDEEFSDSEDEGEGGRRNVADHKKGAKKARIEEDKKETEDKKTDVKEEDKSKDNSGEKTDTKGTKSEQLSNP
PROTOCOL: HDAC2 inhibition, full IC50 measurement (Reaction Biology; fluorogenic p53 peptide RHKK(Ac)AMC)
Assay type: biochemical
CONDITIONS USED: Conc. 4.57E-09 M, t1
Peptide text beside a SMILES is read from it.

COMPOUND | HDAC2 activity raw data (signal)
CCCC[C@H]1NC(=O)[C@H](Cc2ccccc2)NC(=O)[C@H](CCCCCS)NC(=O)[C@@H](CCCNC(=N)N)NC(=O)[C@H](CC(=O)O)NC(=O)[C@@H](CO)NC(=O)[C@@H](C)NC(=O)[C@H](CCCCN)NC1=O [des4.3.1, SHA-Phe-dNle-Lys-dAla-dSer-Asp-dArg] (HELM PEPTIDE1{D.[dR].[O=C([C@H](CCCCCS)N[*:1])[*:2]].F.[CCCC[C@@H](N[*:1])C(=O)[*:2]].K.[dA].[dS]}$PEPTIDE1,PEPTIDE1,1:R1-8:R2$$$V2.0) | 1158146
N=C(N)NCCC[C@H]1NC(=O)[C@@H]2CCCN2C(=O)[C@H](CO)NC(=O)[C@@H](Cc2c[nH]cn2)NC(=O)[C@H](CCCCCS)NC(=O)[C@H](CCCCN)NC(=O)[C@H](Cc2ccc(O)cc2)NC(=O)[C@H]2CCCN2C(=O)[C@@H](CCC(N)=O)NC1=O [des3.1.0, SHA-dHis-Ser-Pro-dArg-dGln-dPro-Tyr-Lys] (HELM PEPTIDE1{K.[O=C([C@H](CCCCCS)N[*:1])[*:2]].[dH].S.P.[dR].[dQ].[dP].Y}$PEPTIDE1,PEPTIDE1,1:R1-9:R2$$$V2.0) | 697486

====

EXPERIMENTAL TARGET: HDAC2 (Homo sapiens, UniProt Q92769)
Construct: purchased Reaction Biology Corporation (assay run by the CRO)
PROTOCOL: HDAC2 inhibition, full IC50 measurement (Reaction Biology; fluorogenic p53 peptide RHKK(Ac)AMC)
Format: biochemical
CONDITIONS USED: Conc. 3.70E-07 M, t1
Peptide text beside a SMILES is read from it.
Listing of recorded HDAC2 activity raw data (signal) by entry.
ASSAY METRIC: HDAC2 activity raw data (signal)

MOLECULE | READOUT NUMBER
CC(C)C[C@H]1NC(=O)[C@H](Cc2c[nH]c3ccccc23)NC(=O)[C@H](CCCCCS)NC(=O)[C@@H](Cc2ccc(O)cc2)NC(=O)[C@@H](C(C)C)NC(=O)[C@H](Cc2c[nH]cn2)NC(=O)CNC(=O)CNC(=O)[C@@H](CO)NC1=O [des2.2.0, SHA-Trp-dLeu-dSer-Gly-Gly-His-dVal-dTyr] (HELM PEPTIDE1{G.G.H.[dV].[dY].[O=C([C@H](CCCCCS)N[*:1])[*:2]].W.[dL].[dS]}$PEPTIDE1,PEPTIDE1,1:R1-9:R2$$$V2.0) | 822571
C[C@H](O)[C@H]1NC(=O)[C@H](Cc2c[nH]c3ccccc23)NC(=O)[C@H](CCCCCS)NC(=O)[C@H](CCCCN)NC(=O)[C@@H](CC(=O)O)NC(=O)[C@@H](CCCCN)NC(=O)[C@@H](CO)NC(=O)[C@H](CC(N)=O)NC(=O)[C@H](CC(=O)O)NC1=O [des2.1.0, SHA-Trp-dThr-Asp-Asn-dSer-dLys-dAsp-Lys] (HELM PEPTIDE1{D.N.[dS].[dK].[dD].K.[O=C([C@H](CCCCCS)N[*:1])[*:2]].W.[dT]}$PEPTIDE1,PEPTIDE1,1:R1-9:R2$$$V2.0) | 153888

====

EXPERIMENTAL TARGET: HDAC2 (Homo sapiens)
Construct: purchased Reaction Biology Corporation (assay run by the CRO)
PROTOCOL: HDAC2 inhibition, full IC50 measurement (Reaction Biology; fluorogenic p53 peptide RHKK(Ac)AMC)
Assay type: biochemical
CONDITIONS USED: Conc. 3.70E-07 M, t2
Peptide text beside a SMILES is read from it.

MOLECULE | EXPERIMENTAL TARGET | HDAC2 activity raw data (signal)
NCCCC[C@@H]1NC(=O)[C@@H]2CCCN2C(=O)[C@H](CC(N)=O)NC(=O)[C@H](CCCCCS)NC(=O)CNC(=O)[C@H](Cc2c[nH]c3ccccc23)NC(=O)[C@@H](CCCCN)NC(=O)[C@H](CCC(N)=O)NC1=O [des1.1.0, SHA-Asn-Pro-Lys-Gln-dLys-Trp-Gly] (HELM PEPTIDE1{G.[O=C([C@H](CCCCCS)N[*:1])[*:2]].N.P.K.Q.[dK].W}$PEPTIDE1,PEPTIDE1,1:R1-8:R2$$$V2.0) | HDAC2 (Homo sapiens) | 506124

====

Listing of recorded HDAC2 activity raw data (signal) by entry.
EXPERIMENTAL TARGET: HDAC2 (Homo sapiens, UniProt Q92769)
Construct: purchased Reaction Biology Corporation (assay run by the CRO)
PROTOCOL: HDAC2 inhibition, full IC50 measurement (Reaction Biology; fluorogenic p53 peptide RHKK(Ac)AMC)
Format: biochemical
CONDITIONS USED: Conc. 1.00E-05 M, t2
Peptide text beside a SMILES is read from it.

COMPOUND | HDAC2 activity raw data (signal)
CCCC[C@H]1NC(=O)[C@H](Cc2ccccc2)NC(=O)[C@H](CCCCCS)NC(=O)[C@@H](CCCNC(=N)N)NC(=O)[C@H](CC(=O)O)NC(=O)[C@@H](CO)NC(=O)[C@@H](C)NC(=O)[C@H](CCCCN)NC1=O [des4.3.1, SHA-Phe-dNle-Lys-dAla-dSer-Asp-dArg] (HELM PEPTIDE1{D.[dR].[O=C([C@H](CCCCCS)N[*:1])[*:2]].F.[CCCC[C@@H](N[*:1])C(=O)[*:2]].K.[dA].[dS]}$PEPTIDE1,PEPTIDE1,1:R1-8:R2$$$V2.0) | 118920
CCCC[C@H]1NC(=O)[C@H](Cc2ccccc2)NC(=O)[C@H](CCCCCS)NC(=O)[C@@H](CO)NC(=O)[C@H](CC(=O)O)NC(=O)[C@@H](CO)NC(=O)[C@@H](C)NC(=O)[C@H](CCCCN)NC1=O [des4.3.1.1, SHA-Phe-dNle-Lys-dAla-dSer-Asp-dSer] (HELM PEPTIDE1{D.[dS].[O=C([C@H](CCCCCS)N[*:1])[*:2]].F.[CCCC[C@@H](N[*:1])C(=O)[*:2]].K.[dA].[dS]}$PEPTIDE1,PEPTIDE1,1:R1-8:R2$$$V2.0) | 1486401

====

EXPERIMENTAL TARGET: HDAC2 (Homo sapiens, UniProt Q92769)
Construct: purchased Reaction Biology Corporation (assay run by the CRO)
PROTOCOL: HDAC2 inhibition, full IC50 measurement (Reaction Biology; fluorogenic p53 peptide RHKK(Ac)AMC)
Type: biochemical
CONDITIONS USED: Conc. 1.11E-06 M, t2
Peptide text beside a SMILES is read from it.

MOLECULE | HDAC2 activity raw data (signal)
CCCC[C@H]1NC(=O)[C@H](CC(=O)O)NC(=O)[C@@H](CO)NC(=O)[C@@H](C)NC(=O)[C@H](CCCCN)NC(=O)[C@@H](CCCCN)NC(=O)[C@H](Cc2ccccc2)NC(=O)[C@H](CCCCCS)NC1=O [des4.3.1.2, SHA-Phe-dLys-Lys-dAla-dSer-Asp-dNle] (HELM PEPTIDE1{D.[CCCC[C@@H](N[*:1])C(=O)[*:2]].[O=C([C@H](CCCCCS)N[*:1])[*:2]].F.[dK].K.[dA].[dS]}$PEPTIDE1,PEPTIDE1,1:R1-8:R2$$$V2.0) | 1704574
CC(C)[C@@H]1NC(=O)[C@H](CCCNC(=N)N)NC(=O)[C@@H](CC(=O)O)NC(=O)[C@H](CO)NC(=O)[C@@H](CO)NC(=O)[C@@H](CCC(=O)O)NC(=O)[C@H](Cc2ccc(O)cc2)NC(=O)[C@H](CCCCCS)NC1=O [des4.2.0, SHA-Tyr-dGlu-dSer-Ser-dAsp-Arg-Val] (HELM PEPTIDE1{R.V.[O=C([C@H](CCCCCS)N[*:1])[*:2]].Y.[dE].[dS].S.[dD]}$PEPTIDE1,PEPTIDE1,1:R1-8:R2$$$V2.0) | 475819
CCCC[C@H]1NC(=O)[C@H](Cc2ccccc2)NC(=O)[C@H](CCCCCS)NC(=O)[C@@H](CCCNC(=N)N)NC(=O)[C@H](C)NC(=O)[C@@H](CO)NC(=O)[C@@H](C)NC(=O)[C@H](CCCCN)NC1=O [des4.3.1.3, SHA-Phe-dNle-Lys-dAla-dSer-Ala-dArg] (HELM PEPTIDE1{A.[dR].[O=C([C@H](CCCCCS)N[*:1])[*:2]].F.[CCCC[C@@H](N[*:1])C(=O)[*:2]].K.[dA].[dS]}$PEPTIDE1,PEPTIDE1,1:R1-8:R2$$$V2.0) | 983057
